Target: T1, APC9291-AA
T1 chain: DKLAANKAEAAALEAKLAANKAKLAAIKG
Assay: two-hybrid library CCmax;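 further: natural log of median RNA to DNA barcode read ratio; higher means stronger binding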
Conditions: mean of both orientations
For each entry below, report its interaction score value.
Give bare numbers.

binder	measured.value
DKNAALKAELAAIEAELAAIEAKLAANKG [APC5009-AA]	-1.51
DENAALEAKAAALKAKAAALKAELAAEEG [APC4336-AA]	-2.36

Okay, here is my list. What is interaction score for each of these?
1. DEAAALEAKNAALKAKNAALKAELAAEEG [APC2556-AA]
2. DKNAALKAKNAALKAKAAALKAKLAAIKG [APC5531-AA]
3. DKAAALKAKAAALKAEAAALEAKAAALKG [APC3323-AA]
4. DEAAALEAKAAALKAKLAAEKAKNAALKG [APC2375-AA]

[-1.79, -1.72, -1.84, -1.88]

Consider the binder DENAALEAKLAAIKAELAAIEAELAAIEG [APC4100-AA] and give its measured interaction score. -1.29
